# Protocol text: in vitro
# Run parameters: rat, gh3-tre-luc cells, AC50 (uM) modified / 1000
Experimental readout: CC50 at 24 h

Completed entries (count: 2):
| Compound | Result |
| --- | --- |
| CC(C)(C)C1CCCCC1=O (stereo not shown) | > 90 µM |
| CN(C)CCCNCCCN | > 90 µM |

Task item: # query: CC50 at 24 h of entry CCCCNC(N)=O
Reply: > 90 µM

Task item: Note, next up: OC[C@H]1O[C@@H](OCCc2ccc(O)cc2)[C@H](O)[C@@H](O)[C@@H]1O [Salidroside]
Reply: > 50 µM

Task item: Note, next up: COc1ccc(/C=N/NC(=O)c2ccncc2)c(C(=O)O)c1OC [Opiniazide]
Reply: > 50 µM

Task item: Note, next up: CC(C)(CO)CO
Reply: > 90 µM

Task item: Note, next up: O=C(N[C@H](c1ccccc1)[C@@H]1CN2CCC1CC2)c1c(Cl)ccc(C(F)(F)F)c1Cl
Reply: 9.74 µM
